Experiment summary: NCI Yeast Anticancer Drug Screen. Data for the cln2 rad14 strain (AID 165);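 further: 0% = growth equal to vehicle treated cultures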
Settings: S. cerevisiae cln2 rad14 strain, at 5.0 µM (retest, dose inferred, filed as 0.5), hits give high values
The panel holds about 79,000 compounds, 15% with a hit somewhere; the sample as a whole holds those more often.
# cutoff 10% applies to growth inhibition; >= gives MET, < gives NOT MET

Determine whether this compound has growth inhibition no lower than 10%: CN(C)c1ccc(/C=N/c2nc(-c3ccccc3)cs2)cc1 NOT MET

Determine whether this compound has growth inhibition no lower than 10%: CNC(C)C(=O)c1ccc2ccc3ccccc3c2c1 (configuration not stated) NOT MET

Determine whether this compound has growth inhibition no lower than 10%: C/C(=N\NC(=S)NCCCNC(=S)N/N=C(\C)c1ccccn1)c1ccccn1 MET

Determine whether this compound has growth inhibition no lower than 10%: N#CCCN(CCC#N)c1ccc(C(Sc2ccccc2)C(NC(=O)c2cc([N+](=O)[O-])ccc2Cl)C(=O)Sc2ccccc2)cc1 (configuration not stated) MET

Determine whether this compound has growth inhibition no lower than 10%: Cc1c(O)/c(=C\O)c2nc3c(=O)ccc(C(=O)NCCN(C)C)c3[nH]c2c1=O NOT MET

Determine whether this compound has growth inhibition no lower than 10%: O=C(O)c1ccccc1C(c1ccccc1)c1ccccc1 MET

Determine whether this compound has growth inhibition no lower than 10%: O=C1c2ccccc2C(=O)c2sc(Nc3ccccc3C(F)(F)F)nc21 MET

====

Experiment summary: NCI Yeast Anticancer Drug Screen. Data for the cln2 rad14 strain (AID 165);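 further: 0% = growth equal to vehicle treated cultures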
Settings: S. cerevisiae cln2 rad14 strain, at 50.0 µM (retest, dose inferred, filed as 5.0)
Method: Growth inhibition of yeast strains with defined genetic alterations is measured as a screen for potential anti-cancer activity. Selected strains with alterations in DNA damage repair or cell cycle control were exposed to compounds and growth inhibition was measured relative to vehicle treated controls. The strain used in this assay is cln2 rad14
This is part of a sample that, as a whole, favours compounds with a hit. Of some 79,000 tested, about 15% had one in any assay. Calls of active or inactive are those of the source. Rule as the data show it: active = growth inhibition above about 70%; inactive = the rest.
Please state which outcome applies, choosing from Yes = active, No = inactive

Solved cases (3 shown):
Compound	Class assignment
CCOC(=O)CSC(=S)Nc1ccc(Cl)cc1	No
CC[N+]1(C)CC2CCC(CC2)C1 (stereo not given)	No
Cc1ccc(COCO)c(O)c1	No

Answer briefly: the call reported for CC/C(=C(\CC)c1ccc(O)c(CN(CC)CC)c1)c1ccc(OC)cc1 in this assay. Yes

Answer briefly: the call reported for Cc1ccc(S(=O)(=O)Nc2ccccc2C=O)cc1 in this assay. No

====

Known growth inhibition of a selection of molecules
Experiment summary: NCI Yeast Anticancer Drug Screen. Data for the sgs1 mgt1 strain (AID 161);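 further: 0% = growth of cultures given vehicle only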
Settings: S. cerevisiae sgs1 mgt1 strain, at 50.0 µM (retest, dose inferred, filed as 5.0), hits give high values
This is part of a sample that, as a whole, favours compounds with a hit. Of some 79,000 tested, about 15% had one in any assay.
Give your result in % as a bare value.

Known growth inhibition results, listed for orientation:
Molecule	growth inhibition (%)
C/C=C/c1cc2c(cc1O)CC[C@@H]1[C@@H]2CC[C@]2(C)[C@@H](O)CC[C@@H]12	97
C[N+](C)(C)CCCCCCCCCCC(=O)N/N=C/c1ccc([N+](=O)[O-])o1	18
CC(=O)Oc1ccc(-c2ccccc2)cc1Br	97

Please give measured growth inhibition of the following entry: CC(C)N=C(NC(C)C)SCCCCCCSC(=NC(C)C)NC(C)C 1

Please give measured growth inhibition of the following entry: CCCC(=S)N1CCOCC1 -1

Please give measured growth inhibition of the following entry: CC(C)(C)c1ccc(-c2nc3ccccc3c(=O)o2)cc1 74

====

Experiment summary: NCI Yeast Anticancer Drug Screen. Data for the mlh1 rad18 strain (AID 175)
Settings: S. cerevisiae mlh1 rad18 strain growth inhibition; at 5.0 µM (retest, dose inferred, filed as 0.5)
About 79,000 compounds went through this panel and 15% of them were active in at least one assay; those are over-represented in the sample as a whole. Activity calls are given as the source filed them. No stated cut-off is given here; in the data, active means growth inhibition above about 70%; inactive means the rest.
Please state which outcome applies, choosing from T = active, F = inactive

Compound string	Class assignment
ClC1=C(Cl)C(Cl)(Cl)C(Cl)(Cl)C1(Cl)Cl	T
Nc1ccc2nc3ccccc3nc2c1	F
Cc1c(O)ccc(C(=O)CCl)c1O	F
CC(=O)Oc1ccc(C23CC4CC(CC(C4)C2)C3)cc1	F
O=[N+]([O-])/C(C(Cl)=C(Cl)Cl)=C(/Cl)SCc1ccccc1	T

Answer briefly: the call reported for Cc1cc2c(Br)cc(Br)c(O)c2nc1C(=O)c1ccccc1 in this assay. F

Answer briefly: the call reported for O=C1c2ccccc2C(=O)c2c1cccc2[N+](=O)[O-] in this assay. T

====

Experiment summary: NCI Yeast Anticancer Drug Screen. Data for the mec2-1 strain (AID 157)
Settings: S. cerevisiae mec2-1 strain, at 50.0 µM (retest, dose inferred, filed as 5.0), hits give high values
Compounds without any hit were thinned out: in the full panel of roughly 79,000, 15% have a hit.
# cutoff 20% applies to growth inhibition; >= gives rule met, < gives rule not met

Solved cases (6 shown):
Molecule	Class assignment
CC(=O)OC1CCC2(C)C(=CCC3C2CCC2(C)C3CC(C(N)=O)C2C(C)=O)C1 (centres undefined)	rule met
CCOC(=O)/C(=C\c1ccccc1)C(=O)CCN1CCOCC1	rule met
O=c1[nH]c2c([N+](=O)[O-])cc(Cl)cc2nc1/C=C(\O)c1ccc(Cl)cc1	rule met
O=C1C(Cl)=C(NCCC2CCCN3CCCCC23)C(=O)c2ccccc21 (centres undefined)	rule met
COc1ccc(NS(=O)(=O)c2ccc(F)cc2)cc1	rule not met
Cn1c(=S)c2[nH]c(SCCN3CCCCC3)nc2n(C)c1=O	rule met

Determine whether this molecule has growth inhibition no lower than 20%: COC(=O)N(C[C@@H]1C=CCCC1)c1ccccc1I rule met

Determine whether this molecule has growth inhibition no lower than 20%: COc1ccc(-c2cn(-c3ccccc3)c3ncnc(N)c23)cc1 rule met

Determine whether this molecule has growth inhibition no lower than 20%: CC1C(=O)C(Br)CC2C1(C)CCC1C2(C)CCC2(C)C3CC(C)(C)CCC3(C)CCC12C (centres undefined) rule not met

Determine whether this molecule has growth inhibition no lower than 20%: C(=N\Nc1c2ccccc2nc2ccccc12)/c1ccc2c(c1)OCO2 rule met

Determine whether this molecule has growth inhibition no lower than 20%: c1ccc2c(c1)N=c1ccccc1=P21c2ccccc2Nc2ccccc21 rule met

Determine whether this molecule has growth inhibition no lower than 20%: CC(C)(C)C(NO)C(O)N1CCCCC1 (centres undefined) rule not met

Determine whether this molecule has growth inhibition no lower than 20%: Nc1ccccc1Nc1c([N+](=O)[O-])cc(C(F)(F)F)cc1[N+](=O)[O-] rule met

Determine whether this molecule has growth inhibition no lower than 20%: O=C(NCCCN1CCN(CCCNC(=O)c2cc(-c3ccccc3)nc3ccccc23)CC1)c1cc(-c2ccccc2)nc2ccccc12 rule met

====

Experiment summary: NCI Yeast Anticancer Drug Screen. Data for the bub3 strain (AID 167)
Settings: S. cerevisiae bub3 mutant strain, at 50.0 µM (retest, dose inferred, filed as 5.0)
This is part of a sample that, as a whole, favours compounds with a hit. Of some 79,000 tested, about 15% had one in any assay. Active and inactive are the calls of the source. No stated cut-off is given here; in the data, active means growth inhibition above about 70%; inactive means the rest.
Please state which outcome applies, choosing from Yes for active, No for inactive

Solved cases (4 shown):
Molecule	Class assignment
CCO/C=C1N=C(/C=C/c2ccccc2Cl)OC/1=O	Yes
Cc1cc(Cl)c(O)c(-c2cc(-c3ccccc3O)c(C#N)c(N)n2)c1	Yes
COc1ccc2c(c1)c1c(C)c3cnccc3c(C)c1n2CCCN	No
CN(c1ccc(Cl)cc1)S(=O)(=O)c1cccc([N+](=O)[O-])c1	Yes

Answer briefly: the call reported for COc1ccc2c(c1)OC(c1ccccc1O)CC2=O (stereo not given) in this assay. No

====

Experiment summary: NCI Yeast Anticancer Drug Screen. Data for the sgs1 mgt1 strain (AID 161);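 further: 0% = growth of cultures given vehicle only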
Settings: S. cerevisiae sgs1 mgt1 strain, at 5.0 µM (retest, dose inferred, filed as 0.5), hits give high values
This is part of a sample that, as a whole, favours compounds with a hit. Of some 79,000 tested, about 15% had one in any assay. Where a SMILES comes first, the peptide text is derived from it. [ ]: non-standard residue; d: D form. The star is where a group is joined. mTyr = N[CH](Cc1cccc(O)c1)C(=O)O; Cbz = O=C(OCc1ccccc1)*; OBn = c1ccc(CO*)cc1
Value kind: growth inhibition (%)
Give your result in % as a bare value.

Compound	U	growth inhibition
Cc1ccc(N2C(=O)C(C)SC2=S)cc1Cl (configuration not stated)	%	1
COC(=O)C(Cc1cccc(O)c1)NC(=O)C(CC(=O)OCc1ccccc1)NC(=O)OCc1ccccc1 (configuration not stated) (Cbz-Asp(OBn)-[mTyr]-OMe; configuration not given here)	%	2

Please give measured growth inhibition of the following entry: FC(F)(F)c1cccc(Nc2ccc3cnc4ccccc4c3c2)c1 -1

Please give measured growth inhibition of the following entry: COc1ccc(C(O)/C(=N\NC(N)=S)c2nc3ccc([N+](=O)[O-])cc3[nH]c2=O)cc1OC (configuration not stated) 4

Please give measured growth inhibition of the following entry: CCCOC(=O)C#CC(=O)OCCC 43

Please give measured growth inhibition of the following entry: C=C1CCCCC1C(C(=O)O)(c1ccccc1)c1ccccc1 (configuration not stated) 79

Please give measured growth inhibition of the following entry: CCCC(=O)Nc1cc([N+](=O)[O-])ccc1O -51
